Values from patent US20260325540A1

- tested_on: HCoV-229E 3CL protease (Human coronavirus 229E)
- assay_details: FRET based protease assay, HCoV-229E 3CL
- assay_context: 229E IC50, 6 nM H229E-CoV Chis-3CLpro, 6 μM peptide 1 substrate, 25° C., 1.5 hrs, pH 7.5

{"columns": ["mol_smiles", "IC50"],
 "data": [
  ["CC(C)(C)C(=O)N[C@H]1C/C=C/[C@H]2CNC(=O)[C@H]2C[C@@H](C#N)NC(=O)[C@@H]2[C@@H]3[C@H](CN2C1=O)C3(C)C", "< 100 nM"],
  ["CC1(C)[C@@H]2[C@H]3C(=O)N[C@H](C#N)C[C@@H]4C(=O)NC[C@@H]4CCCC[C@H](NC(=O)c4cc(C(F)(F)F)on4)C(=O)N3C[C@@H]21", "< 100 nM"],
  ["CC1(C)[C@@H]2[C@H]3C(=O)N[C@H](C#N)C[C@@H]4C(=O)NC[C@@H]4CCCC[C@H](NC(=O)CC4CCCC4)C(=O)N3C[C@@H]21", "< 100 nM"]
]}

----------
Listed molecules paired with reported IC50
- tested_on: HCoV-229E 3CL protease (Human coronavirus 229E, UniProt P0C6U2)
- Sequence (P0C6U2 2966-3267): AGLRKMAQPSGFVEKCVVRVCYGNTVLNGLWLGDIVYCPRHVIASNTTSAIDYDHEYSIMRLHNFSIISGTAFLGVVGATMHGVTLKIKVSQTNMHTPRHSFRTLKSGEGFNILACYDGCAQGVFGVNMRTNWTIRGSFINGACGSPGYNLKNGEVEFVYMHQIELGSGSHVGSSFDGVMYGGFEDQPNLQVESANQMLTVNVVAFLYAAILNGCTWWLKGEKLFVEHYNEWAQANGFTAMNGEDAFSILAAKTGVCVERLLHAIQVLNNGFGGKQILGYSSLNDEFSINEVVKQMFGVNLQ
- assay_details: FRET based protease assay, HCoV-229E 3CL
- assay_context: 229E IC50, 6 nM H229E-CoV Chis-3CLpro, 6 μM peptide 1 substrate, 25° C., 1.5 hrs, pH 7.5

{"columns": ["molecule", "IC50"],
 "data": [
  ["CC(C)(C)OC(=O)N[C@H]1CCCC[C@H]2CNC(=O)[C@H]2C[C@@H](C#N)NC(=O)[C@@H]2CC3(CC3)CN2C1=O [Example 105]", "< 0.1 µM"],
  ["CC(C)C[C@@H]1NC(=O)[C@@H](Cc2ccc(F)cc2)CCCC[C@@H]2CNC(=O)[C@@H]2C[C@@H](C#N)NC1=O [Example 42]", "0.1 to 1 µM"],
  ["CC1(C)[C@@H]2[C@H]3C(=O)N[C@H](C#N)C[C@@H]4C(=O)NC[C@@H]4/C=C/CC[C@H](NC(=O)C(F)(F)F)C(=O)N3C[C@@H]21 [Example 108]", "< 0.1 µM"],
  ["CC(C)C[C@@H]1NC(=O)[C@@H](C2CCCC2)CCC[C@@H]2CNC(=O)[C@@H]2C[C@@H](C=O)NC1=O [Example 14]", "0.1 to 1 µM"],
  ["CC(C)C[C@@H]1NC(=O)CCCCCC[C@@H]2CNCC(=O)[C@H]2C[C@@H](C=O)NC1=O [Example 51]", "1 to 20 µM"],
  ["CC(C)C[C@@H]1NC(=O)[C@@H](Cc2ccccc2)CCCCC[C@@H]2CNC(=O)[C@@H]2C[C@@H](C#N)NC1=O [Example 49]", "> 20 µM"],
  ["CC1(C)[C@@H]2[C@H]3C(=O)N[C@H](C#N)C[C@@H]4C(=O)NCC[C@@H]4CCCC[C@H](NC(=O)C45CC(C(F)(F)F)(C4)C5)C(=O)N3C[C@@H]21 [Example 135]", "0.1 to 1 µM"],
  ["CC(C)(C)OC(=O)N[C@H]1CCC[C@H]2CNC(=O)[C@H]2C[C@@H](C#N)NC(=O)[C@@H]2[C@@H]3[C@H](CN2C(=O)C1)C3(C)C [Example 125]", "0.1 to 1 µM"],
  ["CC(C)(C)C(=O)N[C@H]1CC/C=C/[C@H]2CNC(=O)[C@H]2C[C@@H](C#N)NC(=O)[C@@H]2[C@@H]3[C@H](CN2C1=O)C3(C)C [Example 61]", "< 0.1 µM"],
  ["CC1(C)[C@@H]2[C@H]3C(=O)N[C@H](C#N)C[C@@H]4C(=O)NC[C@@H]4CCCC[C@H](NC(=O)OC4CCCC4)C(=O)N3C[C@@H]21 [Example 75]", "< 0.1 µM"],
  ["CC(C)C[C@@H]1NC(=O)CCCCCC[C@@H]2CNC(=O)[C@H]2C[C@@H](C=O)NC1=O [Example 47]", "0.1 to 1 µM"],
  ["CC(C)(C)C(=O)N[C@H]1CC/C=C/[C@H]2CNC(=O)[C@H]2C[C@@H](C#N)NC(=O)[C@@H]2[C@H]3CCC[C@H]3CN2C1=O [Example 86]", "< 0.1 µM"]
]}

----------
- tested_on: HCoV-229E 3CL protease (Human coronavirus 229E, UniProt P0C6U2)
- assay_details: FRET based protease assay, HCoV-229E 3CL
- assay_context: 229E IC50, 6 nM H229E-CoV Chis-3CLpro, 6 μM peptide 1 substrate, 25° C., 1.5 hrs, pH 7.5
pIC50: −log10 of the molar value.

{"columns": ["mol_smiles", "pIC50"],
 "data": [
  ["CC(C)(C)NC(=O)[C@H]1CCCC[C@H]2CNC(=O)[C@H]2C[C@@H](C#N)NC(=O)[C@@H]2[C@@H]3[C@H](CN2C1=O)C3(C)C", "6.00 to 7.00"],
  ["CC(C)(C)OC(=O)N[C@H]1CCCC[C@H]2CCNC(=O)[C@H]2C[C@@H](C#N)NC(=O)[C@@H]2[C@@H]3[C@H](CN2C1=O)C3(C)C", "> 7.00"],
  ["CC(C)C[C@@H]1NC(=O)[C@@H](Cc2ccccc2)CCCC[C@H]2CNC(=O)[C@H]2C[C@@H](C#N)NC1=O", "6.00 to 7.00"]
]}

----------
Listed compounds paired with reported pIC50
- tested_on: HCoV-229E 3CL protease (Human coronavirus 229E)
- assay_details: FRET based protease assay, HCoV-229E 3CL
- assay_context: 229E IC50, 6 nM H229E-CoV Chis-3CLpro, 6 μM peptide 1 substrate, 25° C., 1.5 hrs, pH 7.5
pIC50: −log10 of the molar value.
parameter: pIC50

{"columns": ["mol_smiles", "parameter", "result"],
 "data": [
  ["CC(C)(C)OC(=O)N[C@H]1CCCC[C@H]2CNC(=O)[C@H]2C[C@@H](C#N)NC(=O)[C@@H]2CCCCCN2C1=O", "pIC50", "6.00 to 7.00"],
  ["CC1(C)[C@@H]2[C@H]3C(=O)N[C@H](C#N)C[C@@H]4C(=O)NC[C@@H]4CCCC[C@H](NC(=O)c4cncnc4)C(=O)N3C[C@@H]21", "pIC50", "> 7.00"],
  ["CC(C)(C)C(=O)N[C@H]1CCC[C@H]2CCNC(=O)[C@@H]2C[C@@H](C#N)NC(=O)[C@@H]2[C@@H]3[C@H](CN2C1=O)C3(C)C", "pIC50", "6.00 to 7.00"]
]}

----------
- tested_on: HCoV-229E 3CL protease (Human coronavirus 229E, UniProt P0C6U2)
- assay_details: FRET based protease assay, HCoV-229E 3CL
- assay_context: 229E IC50, 6 nM H229E-CoV Chis-3CLpro, 6 μM peptide 1 substrate, 25° C., 1.5 hrs, pH 7.5
parameter: IC50

{"columns": ["compound", "parameter", "result"],
 "data": [
  ["CC1(C)[C@@H]2[C@H]3C(=O)N[C@H](C#N)C[C@@H]4C(=O)NC[C@@H]4CCCC[C@H](Nc4ccnc(C(F)(F)F)n4)C(=O)N3C[C@@H]21 [Example 164]", "IC50", "< 100 nM"],
  ["CC(C)(C)OC(=O)NN1CCCC[C@H]2CNC(=O)[C@H]2C[C@@H](C#N)NC(=O)[C@@H]2[C@@H]3[C@H](CN2C1=O)C3(C)C [Example 168]", "IC50", "1000 to 20000 nM"],
  ["CC(C)C[C@@H]1NC(=O)[C@@H](OC(C)(C)C)CCC[C@H]2CNC(=O)[C@@H]2C[C@@H](C=O)NC1=O [Example 20]", "IC50", "1000 to 20000 nM"],
  ["CC1(C)[C@@H]2[C@H]3C(=O)N[C@H](C#N)C[C@@H]4C(=O)NC[C@@H]4CCCC[C@H](NC(=O)C4CCCCC4)C(=O)N3C[C@@H]21 [Example 77]", "IC50", "< 100 nM"],
  ["CC1(C)[C@@H]2[C@H]3C(=O)N[C@H](C#N)C[C@@H]4C(=O)NCC[C@@H]4CCCC[C@H](NC(=O)C(F)(F)F)C(=O)N3C[C@@H]21 [Example 104]", "IC50", "< 100 nM"],
  ["CC1(C)[C@@H]2[C@H]3C(=O)N[C@H](C#N)C[C@@H]4C(=O)NC[C@@H]4CCCC[C@H](NC(=O)C4CCC(F)(F)CC4)C(=O)N3C[C@@H]21 [Example 68]", "IC50", "< 100 nM"],
  ["CC(C)(C)CC(=O)N[C@H]1CCCC[C@H]2CCNC(=O)[C@H]2C[C@@H](C#N)NC(=O)[C@@H]2[C@H]3CCC[C@H]3CN2C1=O [Example 95]", "IC50", "< 100 nM"],
  ["CC(C)(C)C(=O)N[C@H]1CCCC[C@H]2CCNC(=O)[C@@H]2C[C@@H](C#N)NC(=O)[C@@H]2[C@@H]3[C@H](CN2C1=O)C3(C)C [Example 65]", "IC50", "1000 to 20000 nM"],
  ["CC(C)(C)C(=O)N[C@H]1CCCC[C@H]2CNC(=O)[C@H]2C[C@@H](C#N)NC(=O)[C@@H]2CCCCN2C1=O [Example 71]", "IC50", "1000 to 20000 nM"],
  ["Cc1nc(C(=O)N[C@H]2CCCC[C@H]3CNC(=O)[C@H]3C[C@@H](C#N)NC(=O)[C@@H]3[C@@H]4[C@H](CN3C2=O)C4(C)C)co1 [Example 115]", "IC50", "< 100 nM"],
  ["CC(C)C[C@@H]1NC(=O)[C@H](Cc2ccccc2)CCC[C@H]2CNC(=O)[C@H]2C[C@@H](C=O)NC1=O [Example 12]", "IC50", "< 100 nM"],
  ["CC(C)C[C@@H]1NC(=O)[C@@H](Cc2ccccc2)CCC[C@@H]2CNC(=O)[C@@H]2C[C@@H](C=O)NC1=O [Example 9]", "IC50", "100 to 1000 nM"],
  ["CC1(C)[C@@H]2[C@H]3C(=O)N[C@H](C#N)C[C@@H]4C(=O)NC[C@@H]4CCCC[C@H](NC(=O)c4cccc(Cl)c4Cl)C(=O)N3C[C@@H]21 [Example 134]", "IC50", "< 100 nM"],
  ["CC(C)C[C@@H]1NC(=O)[C@@H](NC(=O)OC(C)(C)C)CCC[C@@H]2CNC(=O)[C@@H]2C[C@@H](C=O)NC1=O [Example 16]", "IC50", "1000 to 20000 nM"],
  ["CC(C)(F)C[C@@H]1NC(=O)[C@@H](NC(=O)OC(C)(C)C)CCCC[C@H]2CNC(=O)[C@H]2C[C@@H](C#N)NC1=O [Example 138]", "IC50", "100 to 1000 nM"],
  ["CC(C)C[C@@H]1NC(=O)[C@@H](NC(=O)OC(C)(C)C)CCC[C@H]2CNC(=O)[C@H]2C[C@@H](C=O)NC1=O [Example 15]", "IC50", "100 to 1000 nM"],
  ["CC1(C)[C@@H]2[C@H]3C(=O)N[C@H](C#N)C[C@@H]4C(=O)NC[C@@H]4CCCC[C@H](NC(=O)C45CCC(C4)C5)C(=O)N3C[C@@H]21 [Example 148]", "IC50", "< 100 nM"],
  ["CC(C)C[C@@H]1NC(=O)CCCCC[C@@H]2CCNC(=O)[C@H]2C[C@@H](C=O)NC1=O [Example 33]", "IC50", "1000 to 20000 nM"],
  ["CC(C)(C)C[C@@H]1NC(=O)[C@@H](NC(=O)c2ccc(Cl)c(Cl)c2)CCCC[C@H]2CNC(=O)[C@H]2C[C@@H](C#N)NC1=O [Example 136]", "IC50", "< 100 nM"],
  ["CC(C)C[C@H]1C(=O)N[C@H](C#N)C[C@@H]2C(=O)NC[C@@H]2CCCC[C@H](NC(=O)C(C)(C)C)C(=O)N1C [Example 57]", "IC50", "100 to 1000 nM"],
  ["CC(C)C[C@@H]1NC(=O)[C@@H](C2CCCC2)CCC[C@H]2CNC(=O)[C@@H]2C[C@@H](C#N)NC1=O [Example 28]", "IC50", "1000 to 20000 nM"],
  ["CC1(C)[C@@H]2[C@H]3C(=O)N[C@H](C#N)C[C@@H]4C(=O)NC[C@@H]4CCCC[C@H](Nc4cc(C(F)(F)F)ncn4)C(=O)N3C[C@@H]21 [Example 163]", "IC50", "< 100 nM"],
  ["CC1(C)[C@@H]2[C@H]3C(=O)N[C@H](C#N)C[C@@H]4C(=O)NC[C@@H]4CCCC[C@H](Nc4nccc(C(F)(F)F)n4)C(=O)N3C[C@@H]21 [Example 162]", "IC50", "< 100 nM"],
  ["CC(C)C[C@@H]1NC(=O)[C@@H](NC(=O)C(C)(C)C)CC/C=C\\[C@H]2CNC(=O)[C@H]2C[C@@H](C#N)NC1=O [Example 59]", "IC50", "100 to 1000 nM"]
]}
